- Tested on: TNF-α
- Measurement protocol: Inhibition of TNF-α secretion in LPS stimulated peripheral blood mononuclear cells
- Assay type: cell-based
- Condition summary: PBMC; LPS stimulated human peripheral blood mononuclear cells, 18 hours, ELISA; read-out: The median inhibition concentration (IC50, nM) of TNF-α
Measure name: IC50 (nM)

- Cc1ccc(NC(=O)OCc2ccccc2)cc1C(=O)c1ccc(Nc2ccc(F)cc2F)cc1Cl [Compound 277]: 0.8

1. CCOC(=O)CNC(=O)c1ccc(C)c(C(=O)c2ccc(Nc3ccc(Cl)cc3F)cc2Cl)c1 [Compound 123]
2. COc1ccc(C(=O)NCCO)cc1C(=O)c1ccc(Nc2ccccc2)cc1Cl [Compound 195]
(Q) When their IC50 values are compared, which is larger, 1 or 2 ? Refer to your chosen entry by its label in the reply.
(A) 2
(2: 1 nM, 1: 0.3 nM)

A. Cc1ccccc1C(=O)c1ccc(Nc2cccc(F)c2C)cc1Cl [Ref. comp. f, reference compound]
B. Cc1ccc(C(=O)NC(C)(CO)CO)cc1C(=O)c1ccc(Nc2ccc(F)cc2F)cc1Cl [Compound 157]
C. Cc1ccc(C(=O)NCC(=O)NCCC(N)=O)cc1C(=O)c1ccc(Nc2ccc(F)cc2F)cc1Cl [Compound 168]
D. CCOC(=O)CNC(=O)CNC(=O)c1ccc(C)c(C(=O)c2ccc(Nc3ccc(Cl)cc3F)cc2Cl)c1 [Compound 122]
(Q) Provide the items ranked by increasing IC50. Labels, ranked as asked.
(A) D, B, C, A
(D: 0.2 nM, B: 0.9 nM, C: 2.5 nM, A: 4 nM)

// data source = patent US7977387B2
